target: full-length human RORγt (Homo sapiens (Human), UniProt P51449); experiment: RORγt (full-length human) reporter assay, conditions A or B; type: cell-based; details: read-out: RORγt (FL) Reporter Assay A or B, % inhibition @ 6 μM; 6 μM compound concentration
Sequence (P51449 other isoform, or with tags, fused parts or gaps): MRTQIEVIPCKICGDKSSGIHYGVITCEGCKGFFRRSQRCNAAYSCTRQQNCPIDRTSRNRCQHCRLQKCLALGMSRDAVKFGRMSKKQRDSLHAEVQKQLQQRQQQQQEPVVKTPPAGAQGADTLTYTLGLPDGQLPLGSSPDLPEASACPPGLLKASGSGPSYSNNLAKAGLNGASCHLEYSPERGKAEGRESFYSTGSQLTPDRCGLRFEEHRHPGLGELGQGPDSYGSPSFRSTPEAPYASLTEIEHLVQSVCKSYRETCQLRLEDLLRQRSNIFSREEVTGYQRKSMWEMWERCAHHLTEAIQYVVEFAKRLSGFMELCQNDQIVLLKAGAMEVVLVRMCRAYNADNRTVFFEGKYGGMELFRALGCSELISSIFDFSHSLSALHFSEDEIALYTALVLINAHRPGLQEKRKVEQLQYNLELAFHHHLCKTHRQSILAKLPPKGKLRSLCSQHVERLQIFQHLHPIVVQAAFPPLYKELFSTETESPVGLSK

>  <Given Smiles>
CCc1nc(C(=O)NC[C@H]2CC[C@H](S(C)(=O)=O)CC2)c(C#N)n1-c1ncc(CCC(F)(F)F)cc1OC

>  <inhibition at 6 µM [%]>
96

$$$$
>  <Given Smiles>
CCc1nc(C(=O)NC[C@]2(O)CC[C@@H](S(C)(=O)=O)CC2)c(Cl)n1-c1c(F)cc(CC(O)(C(F)(F)F)C(F)(F)F)cc1F

>  <inhibition at 6 µM [%]>
99

$$$$
>  <Given Smiles>
CCc1nc(C(=O)NC[C@]2(O)CC[C@@H](S(C)(=O)=O)CC2)c(C#N)n1-c1ncc(CCC(F)(F)F)cc1OC

>  <inhibition at 6 µM [%]>
57

$$$$
>  <Given Smiles>
CCc1nc(C(=O)NC[C@]2(O)CC[C@@H](S(C)(=O)=O)CC2)c(C)n1-c1ncc(CCCC(F)(F)F)cc1OC(F)F

>  <inhibition at 6 µM [%]>
78

$$$$
>  <Given Smiles>
[2H]C([2H])([2H])Oc1cc(CCC(F)(F)F)ccc1-n1c(CC)nc(C(=O)NC[C@]2(O)CC[C@@H](S(C)(=O)=O)CC2)c1C#N

>  <inhibition at 6 µM [%]>
96

$$$$
>  <Given Smiles>
CCc1nc(C(=O)NC[C@H]2CC[C@H](S(C)(=O)=O)CC2)c(C#N)n1-c1cnc(CCC(F)(F)F)cc1OC

>  <inhibition at 6 µM [%]>
88

$$$$

---

target: human RORγt ligand binding domain (RORγt LBD) (Homo sapiens (Human), UniProt P51449)
Sequence (P51449 other isoform, or with tags, fused parts or gaps): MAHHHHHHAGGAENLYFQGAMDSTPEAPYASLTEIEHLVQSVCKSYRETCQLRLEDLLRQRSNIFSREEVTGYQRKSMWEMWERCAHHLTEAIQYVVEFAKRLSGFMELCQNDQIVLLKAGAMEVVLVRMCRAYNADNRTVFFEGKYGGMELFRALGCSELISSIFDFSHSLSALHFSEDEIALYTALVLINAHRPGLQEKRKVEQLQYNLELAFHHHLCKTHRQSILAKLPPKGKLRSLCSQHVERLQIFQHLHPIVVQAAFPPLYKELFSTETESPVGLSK
Each entry below carries its reported log10 Kd.
Outcome Measure: log10 Kd (log10 of the value in nM)

>  <Molecule>
CCc1nc(C(=O)NC[C@H]2CC[C@H](S(C)(=O)=O)CC2)c(C#N)n1-c1ncc(CC(C)(C)C(F)(F)F)cc1OC

>  <log10 Kd>
1.08

$$$$
>  <Molecule>
CCc1nc(C(=O)NC[C@]2(O)CC[C@@H](S(C)(=O)=O)CC2)c(Cl)n1-c1ccc(CC(C)(C)C(F)(F)F)c(F)c1

>  <log10 Kd>
0.73

$$$$
>  <Molecule>
[2H]C([2H])([2H])Oc1cc(CC(C)(C)C(F)(F)F)ccc1-n1c(CC)nc(C(=O)NC[C@]2(C#N)CC[C@@H](S(C)(=O)=O)CC2)c1F

>  <log10 Kd>
1.15

$$$$
>  <Molecule>
CCc1nc(C(=O)NC[C@H]2CC[C@H](S(C)(=O)=O)CC2)c(C)n1-c1ncc(CC(C(F)(F)F)C(F)(F)F)cc1OC(F)F

>  <log10 Kd>
1.30

$$$$
>  <Molecule>
CCc1nc(C(=O)NC[C@@]2(O)CC[C@H](S(C)(=O)=O)C[C@@H]2O)c(Cl)n1-c1ncc(CC(C(F)(F)F)C(F)(F)F)cc1OC(F)F (stereo in doubt)

>  <log10 Kd>
1.86

$$$$
>  <Molecule>
[2H]C([2H])([2H])Oc1cc(CC(C)(C)C(F)(F)F)ccc1-n1c(CC)nc(C(=O)NC[C@H]2CC[C@H](S(C)(=O)=O)CC2)c1F

>  <log10 Kd>
0.68

$$$$
>  <Molecule>
CCc1nc(C(=O)NC[C@H]2CC[C@H](S(C)(=O)=O)CC2)c(C#N)n1-c1cnc(CCC(F)(F)F)cc1OC

>  <log10 Kd>
2.75

$$$$
>  <Molecule>
CCc1nc(C(=O)NC[C@]2(O)CC[C@@H](S(C)(=O)=O)CC2)c(Cl)n1-c1ccc(CCC(F)(F)F)cc1F

>  <log10 Kd>
1.69

$$$$
>  <Molecule>
CCc1nc(C(=O)NC[C@]2(O)CC[C@@H](S(C)(=O)=O)CC2)c(C#N)n1-c1ccc(CCC(F)(F)F)cc1OC(F)F

>  <log10 Kd>
1.92

$$$$
>  <Molecule>
CCc1nc(C(=O)NC[C@]2(O)CC[C@@H](S(C)(=O)=O)CC2)c(Cl)n1-c1c(F)cc(CC(C)C(F)(F)F)cc1F (stereo partly drawn)

>  <log10 Kd>
1.23

$$$$
>  <Molecule>
CCc1nc(C(=O)NC[C@H]2CC[C@H](S(C)(=O)=O)CC2)c(C)n1-c1ccc(CC(C)C(F)(F)F)cc1OC (single isomer, unassigned)

>  <log10 Kd>
0.00

$$$$
>  <Molecule>
Cc1nc(C(=O)NC[C@@H]2CC[C@@H](S(C)(=O)=O)C[C@H]2O)c(C#N)n1-c1ccc(CC(C)(C)C(F)(F)F)cc1OC(F)F (single isomer, unassigned) [Example 57]

>  <log10 Kd>
1.34

$$$$

---

target: full-length human RORγt (Homo sapiens (Human)); assay: RORγt (full-length human) reporter assay, conditions A or B; assay type: cell-based; details: 3 μM compound concentration (*); read-out: RORγt (FL) Reporter Assay A or B, % inhibition

>  <Molecule>
CCc1nc(C(=O)NC[C@@]2(O)CC[C@H](S(C)(=O)=O)C[C@@H]2O)c(Cl)n1-c1ncc(CC(C(F)(F)F)C(F)(F)F)cc1OC(F)F (stereo in doubt)

>  <inhibition at 3 µM (%)>
70

$$$$
>  <Molecule>
CCc1nc(C(=O)NC[C@]2(O)CC[C@@H](S(C)(=O)=O)C[C@H]2O)c(Cl)n1-c1ncc(CC(C(F)(F)F)C(F)(F)F)cc1OC(F)F (stereo in doubt)

>  <inhibition at 3 µM (%)>
103

$$$$
>  <Molecule>
Cc1nc(C(=O)NC[C@H]2CC[C@H](S(C)(=O)=O)CC2)c(C#N)n1-c1ccc(CC(C)(C)C(F)(F)F)cc1OC(F)F

>  <inhibition at 3 µM (%)>
84

$$$$

---

biological target: full-length human RORγt (Homo sapiens (Human)); experiment: RORγt (full-length human) reporter assay, conditions A or B; conditions: HEK293T cells; read-out: RORγt (FL) Reporter Assay A or B, IC50
pIC50: −log10 of the molar value.
Each entry below carries its reported pIC50.

>  <Molecule>
[2H]C([2H])([2H])Oc1cc(CCC(F)(F)F)ccc1-n1c(CC)nc(C(=O)NC[C@]2(O)CC[C@@H](S(C)(=O)=O)CC2)c1C#N

>  <Target Or System>
full-length human RORγt (Homo sapiens (Human))

>  <pIC50>
6.49

$$$$
>  <Molecule>
CCc1nc(C(=O)NC[C@@]2(O)CC[C@H](S(C)(=O)=O)C[C@@H]2O)c(Cl)n1-c1ncc(CC(C(F)(F)F)C(F)(F)F)cc1OC(F)F (stereo in doubt)

>  <Target Or System>
full-length human RORγt (Homo sapiens (Human))

>  <pIC50>
6.10

$$$$
>  <Molecule>
CCc1nc(C(=O)NC[C@H]2CC[C@H](S(C)(=O)=O)CC2)c(Cl)n1-c1ccc(CCCC(F)(F)F)cc1F

>  <Target Or System>
full-length human RORγt (Homo sapiens (Human))

>  <pIC50>
7.66

$$$$
>  <Molecule>
COc1cc(CC(C)(C)C(F)(F)F)ccc1-n1cc(C(=O)NC[C@]2(O)CC[C@@H](S(C)(=O)=O)CC2)nc1C

>  <Target Or System>
full-length human RORγt (Homo sapiens (Human))

>  <pIC50>
6.27

$$$$
>  <Molecule>
CCc1nc(C(=O)NC[C@H]2CC[C@H](S(C)(=O)=O)CC2)c(C#N)n1-c1ccc(CCC(F)(F)F)cc1OC(F)(F)F

>  <Target Or System>
full-length human RORγt (Homo sapiens (Human))

>  <pIC50>
6.72

$$$$
>  <Molecule>
CCc1nc(C(=O)NC[C@]2(O)CC[C@@H](S(C)(=O)=O)CC2)c(C)n1-c1ncc(CC(C)(C)C(F)(F)F)cc1OC

>  <Target Or System>
full-length human RORγt (Homo sapiens (Human))

>  <pIC50>
6.85

$$$$
>  <Molecule>
CCc1nc(C(=O)NC[C@]2(C#N)CC[C@@H](S(C)(=O)=O)CC2)c(C)n1-c1ncc(CC(C)(C)C(F)(F)F)cc1OC

>  <Target Or System>
full-length human RORγt (Homo sapiens (Human))

>  <pIC50>
6.51

$$$$
>  <Molecule>
[2H]C([2H])([2H])Oc1cc(CC(C)(C)C(F)(F)F)ccc1-n1c(CC)nc(C(=O)NC[C@]2(C#N)CC[C@@H](S(C)(=O)=O)CC2)c1F

>  <Target Or System>
full-length human RORγt (Homo sapiens (Human))

>  <pIC50>
7.11

$$$$
>  <Molecule>
CCCc1nc(C(=O)NC[C@H]2CC[C@H](S(C)(=O)=O)CC2)c(Cl)n1-c1ccc(N[C@H](C)C(F)(F)F)cc1OC

>  <Target Or System>
full-length human RORγt (Homo sapiens (Human))

>  <pIC50>
7.41

$$$$
>  <Molecule>
CCc1nc(C(=O)NC[C@H]2CC[C@H](S(C)(=O)=O)CC2)c(Cl)n1-c1c(F)cc(C[C@H](C)C(F)(F)F)cc1F (single isomer, unassigned)

>  <Target Or System>
full-length human RORγt (Homo sapiens (Human))

>  <pIC50>
7.64

$$$$
>  <Molecule>
CCc1nc(C(=O)NC[C@H]2CC[C@H](S(C)(=O)=O)CC2)c(C#N)n1-c1cnc(CCC(F)(F)F)cc1OC

>  <Target Or System>
full-length human RORγt (Homo sapiens (Human))

>  <pIC50>
5.82

$$$$
>  <Molecule>
CCc1nc(C(=O)NC[C@]2(O)CC[C@@H](S(C)(=O)=O)CC2)c(C#N)n1-c1ccc(CC(C)C(F)(F)F)cc1OC (stereo partly drawn)

>  <Target Or System>
full-length human RORγt (Homo sapiens (Human))

>  <pIC50>
7.40

$$$$
